- Test system: UO-31
- assay-comment: NCI tumour cell line growth inhibition, 48 h
The source made the active and inactive calls. Cut-off read from the data, not from the text of the source: active = GI50 up to about 1.1 µM and inactive = higher.
Please state which outcome applies, choosing from active, inactive

[
  {
    "compound": "S=C(NCCCCCCNC(=S)Nc1c2ccccc2nc2ccccc12)Nc1c2ccccc2nc2ccccc12",
    "assigned-class": "inactive"
  }
]

# outcome recorded in this test, key = O=C1OCC(CN2CCC(n3c(=O)[nH]c4ccccc43)CC2)=C1c1ccccc1
inactive

Recorded test outcome, item Nn1c(SCC(=O)O)nc2ccccc2c1=O
inactive

What did this assay record as the result for COc1ccc(C[C@@H](CO)NC2=C(C#N)CCC2)cc1 ?
inactive

For CC(=O)N(CCc1ccccc1)C(C#N)c1ccc(OCCCCCCCCCCOc2ccc(C(C#N)N(CCc3ccccc3)C(C)=O)cc2)cc1 (stereo unspecified) , which call appears in the assay record?
inactive

Fill in: this test's call for O=C(CC(=O)c1cccc2ccccc12)C(=O)NC1C2CC3CC(C2)CC1C3 (stereo unspecified) is ___
inactive

Called result for CCC/C(=N\NC(=S)N1CCN(c2ccccn2)CC1)c1ccccn1
active

Which outcome was assigned to COc1cc(/C=c2/c3ccccc3n3c2cc(-c2ccccc2)[n+]3C)cc(OC)c1OC in this test?
inactive

Write down the call the test reported for this compound. Item: N#C/C(=C/c1cccc2ccccc12)C(=O)c1ccccc1
inactive

Which result was noted for this compound in the test: CC1(Br)CC2OC3(Br)C=CC(C)(O)C2(CC1=O)C3(C)C (stereo unspecified)
inactive

Field: outcome | Entry: CC(C)(C)OC(=O)N(CCCCNC(=O)c1ccccc1)CCCNC(=O)c1ccccc1
inactive

Hi, do you know how C=C(Cl)C(Cl)(CBr)CCC(Br)C(C)(C)Br (stereo unspecified) came out in this test?
inactive

* * *

- Tested on: UACC-62
- assay-comment: NCI tumour cell line growth inhibition, 48 h
Activity calls are given as the source filed them. Cut-off read from the data, not from the text of the source: active = GI50 up to about 1.1 µM and inactive = higher. Where a SMILES comes first, the peptide text is derived from it. The star is where a group is joined. Boc = CC(C)(C)OC(=O)*; OSu = O=C1CCC(=O)N1O*
Thanks in advance; please answer with one of these: active, inactive

Example entries and their recorded answers appear below.
[
  {
    "compound": "c1ccc2c(c1)nnn2C1CCCCO1 (stereo not given)",
    "assigned-class": "inactive"
  },
  {
    "compound": "C=C(C)[C@@H]1CC[C@]2(C)CC[C@]3(C)[C@H](CC[C@@H]4[C@@]5(C)CC[C@H](OC(=O)c6ccccc6)C(C)(C)[C@@H]5CC[C@]43C)[C@@H]12",
    "assigned-class": "inactive"
  },
  {
    "compound": "CS(=N)(=O)CCC(N)P(=O)(O)O (stereo not given)",
    "assigned-class": "inactive"
  },
  {
    "compound": "Clc1ccc(/C=N/c2ccc(Oc3ccc(Cl)cc3)c(Cl)c2)cc1",
    "assigned-class": "inactive"
  },
  {
    "compound": "CNc1nc(=O)c(C#N)c(-c2ccc(C)cc2)s1",
    "assigned-class": "inactive"
  },
  {
    "compound": "Nc1nc2ncn(CC(O)CO)c2c(=S)[nH]1 (stereo not given)",
    "assigned-class": "inactive"
  },
  {
    "compound": "CN(C)CC/C(=N\\Nc1ccc(Cl)cc1Cl)c1ccccc1",
    "assigned-class": "inactive"
  },
  {
    "compound": "Nc1ccccc1OCc1cc(=O)c(OCc2ccccc2)co1",
    "assigned-class": "active"
  },
  {
    "compound": "O=c1oc2cc(O)ccc2c2oc3cc(O)ccc3c12 [COUMESTROL]",
    "assigned-class": "inactive"
  }
]

For this compound, state the assay outcome: CC(NC(=O)C(NC(=O)OC(C)(C)C)C(C)C)C(=O)NCC(=O)ON1C(=O)CCC1=O (stereo not drawn) (Boc-Val-Ala-Gly-OSu; configuration not given here)
inactive
